System: 5-hydroxytryptamine receptor 2C (Homo sapiens) (UniProt P28335)
Sequence (P28335 whole entry): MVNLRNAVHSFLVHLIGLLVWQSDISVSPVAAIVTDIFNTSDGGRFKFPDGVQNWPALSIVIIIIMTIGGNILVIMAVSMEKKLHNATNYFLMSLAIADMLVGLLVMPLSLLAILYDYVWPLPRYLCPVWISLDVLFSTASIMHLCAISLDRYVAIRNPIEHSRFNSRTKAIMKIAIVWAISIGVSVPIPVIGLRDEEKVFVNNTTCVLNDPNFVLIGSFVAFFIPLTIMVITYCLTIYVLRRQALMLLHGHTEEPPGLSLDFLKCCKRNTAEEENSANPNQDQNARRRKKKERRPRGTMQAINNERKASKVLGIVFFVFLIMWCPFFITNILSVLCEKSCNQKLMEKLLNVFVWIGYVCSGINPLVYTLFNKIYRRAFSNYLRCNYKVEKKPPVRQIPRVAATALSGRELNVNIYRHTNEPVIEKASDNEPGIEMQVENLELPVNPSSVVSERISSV
Measurement notes: Agonist activity at human 5HT2C receptor stably expressed in Flp-In-T-REx-293 cells assessed as maximal Gq-mediated calcium flux by Fluo-4 direct dye based FLIPR Tetra assay relative to control
Type: functional, cell-based
Condition: filed as agonist
Each entry below carries its recorded Emax.
Response body: numeric value in %, unit text excluded.

These solved cases illustrate the format of a correct answer.
• Oc1ccc2[nH]c3c(c2c1)CCNC3Cc1ccccc1 (stereo not drawn) = 100
• Oc1ccc2[nH]c3c(c2c1)CCNC3c1cccs1 (stereo not drawn) = 97
• Clc1ccc2[nH]c3c(c2c1)CCNC3c1cccs1 (stereo not drawn) = 48.6
• Fc1ccc2[nH]c3c(c2c1)CCNC3C(c1ccccc1)c1ccccc1 (stereo not drawn) = 103
• Oc1ccccc1C1NCCc2c1[nH]c1ccc(Cl)cc21 (stereo not drawn) = 103

Entry Cc1noc(C)c1C1NCCc2c1[nH]c1ccc(Cl)cc21 (stereo not drawn) ; Emax = 104

Entry Clc1ccc2[nH]c3c(c2c1)CCNC3CCc1ccccc1 (stereo not drawn) ; Emax = 98.5

Entry COc1ccc2cc(C3NCCc4c3[nH]c3ccc(Cl)cc43)ccc2c1 (stereo not drawn) ; Emax = 93.7

Entry Cc1ccc(C2NCCc3c2[nH]c2ccc(Cl)cc32)cc1 (stereo not drawn) ; Emax = 97.2

Entry Oc1c(Cl)cccc1C1NCCc2c1[nH]c1ccc(F)cc21 (stereo not drawn) ; Emax = 99.2

Entry Oc1c(Cl)cccc1C1NCCc2c1[nH]c1ccc(Cl)cc21 (stereo not drawn) ; Emax = 94

Entry COc1ccc(C2NCCc3c2[nH]c2ccc(Cl)cc32)c(O)c1 (stereo not drawn) ; Emax = 97.2

* * *

System: 5-hydroxytryptamine receptor 2A (Homo sapiens)
Sequence (P28223 whole entry): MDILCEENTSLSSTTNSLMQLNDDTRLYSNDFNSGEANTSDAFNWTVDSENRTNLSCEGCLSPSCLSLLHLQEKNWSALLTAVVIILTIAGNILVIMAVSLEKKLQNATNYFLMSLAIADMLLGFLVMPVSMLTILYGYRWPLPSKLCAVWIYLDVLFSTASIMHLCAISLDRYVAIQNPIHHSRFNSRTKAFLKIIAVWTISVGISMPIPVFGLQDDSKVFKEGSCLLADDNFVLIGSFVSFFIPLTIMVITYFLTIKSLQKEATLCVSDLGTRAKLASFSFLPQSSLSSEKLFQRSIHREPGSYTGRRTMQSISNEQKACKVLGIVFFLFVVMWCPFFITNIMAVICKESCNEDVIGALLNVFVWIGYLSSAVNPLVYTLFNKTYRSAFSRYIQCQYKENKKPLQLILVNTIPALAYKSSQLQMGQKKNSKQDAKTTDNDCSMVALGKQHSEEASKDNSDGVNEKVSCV
Measurement notes: Agonist activity at human 5HT2A receptor stably expressed in Flp-In-T-REx-293 cells assessed as maximal Gq-mediated calcium flux by Fluo-4 direct dye based FLIPR Tetra assay relative to control
Assay type: functional, cell-based
Condition: filed as agonist
Value kind: Emax
Form entry: enter the amount, then its unit.

These solved cases illustrate the format of a correct answer.
- Clc1ccc2[nH]c3c(c2c1)CCNC3c1ccc(Cl)s1 (stereo not given): 100%
- Oc1cc(Br)ccc1C1NCCc2c1[nH]c1ccc(Cl)cc21 (stereo not given): 94.5%

Entry CCC1NCCc2c1[nH]c1ccc(F)cc21 (stereo not given) ; Emax = 75.4%

Entry COc1cc(OC)c(C2NCCc3c2[nH]c2ccc(O)cc32)cc1OC (stereo not given) ; Emax = 102%

Entry Oc1cc(Br)ccc1C1NCCc2c1[nH]c1ccc(F)cc21 (stereo not given) ; Emax = 98%

* * *

Each entry below carries its recorded Emax.
System: 5-hydroxytryptamine receptor 2A (Homo sapiens)
Measurement notes: Agonist activity at human 5HT2A receptor stably expressed in Flp-In-T-REx-293 cells assessed as maximal Gq-mediated calcium flux by Fluo-4 direct dye based FLIPR Tetra assay relative to control
Type: functional, cell-based
Response body: numeric value in %, unit text excluded.

Summary line: COc1ccccc1C1NCCc2c1[nH]c1ccc(O)cc21 (stereo unspecified) , 5-hydroxytryptamine receptor 2A (Homo sapiens), reported Emax = 21.5

Summary line: Oc1ccc2[nH]c3c(c2c1)CCNC3c1ccccc1 (stereo unspecified) , 5-hydroxytryptamine receptor 2A (Homo sapiens), reported Emax = 26.3

Summary line: Clc1ccc2[nH]c3c(c2c1)CCNC3c1cncnc1 (stereo unspecified) , 5-hydroxytryptamine receptor 2A (Homo sapiens), reported Emax = 32.1
